testedSystem: human β2 -adrenergic receptor (Homo sapiens, UniProt P07550)
Construct: expressed in transfected cells; host or cells: CHO-K1, clone CHO/pKREX21-8
Sequence (P07550 whole entry): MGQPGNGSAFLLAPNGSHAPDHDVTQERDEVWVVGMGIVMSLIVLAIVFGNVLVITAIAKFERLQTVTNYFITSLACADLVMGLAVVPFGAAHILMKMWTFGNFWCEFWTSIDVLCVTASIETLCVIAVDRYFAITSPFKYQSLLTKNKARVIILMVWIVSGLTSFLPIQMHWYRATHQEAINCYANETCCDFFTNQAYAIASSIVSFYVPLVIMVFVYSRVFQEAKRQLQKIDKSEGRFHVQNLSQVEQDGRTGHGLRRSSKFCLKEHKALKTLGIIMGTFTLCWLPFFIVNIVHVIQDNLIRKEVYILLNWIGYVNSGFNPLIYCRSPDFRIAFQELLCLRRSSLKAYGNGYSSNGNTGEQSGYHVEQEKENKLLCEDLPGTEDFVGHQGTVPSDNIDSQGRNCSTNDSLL
assayProtocol: Human β2-adrenergic receptor-stimulating activity (cAMP accumulation in CHO/pKREX21-8 cells)
Type: cell-based
assayConditions: read-out: I.A. value β2 -receptor
We label by threshold. Values of Emax strictly beneath 30% are rule met. Values of 30% and up are rule not met.

[
  {
    "compound": "CCOc1cccc2c(CC(C)NCC(O)c3cccc(Cl)c3)c[nH]c12 (stereo not shown)",
    "category": "rule not met"
  }
]

Exercise: Lab note: confirm whether the reported Emax for this compound is below 30%, equality not counting. compound: CC(Cc1c[nH]c2c(OCc3ccccc3)cccc12)NCC(O)c1cccc(Cl)c1 (stereo not shown)
Solution: rule not met

Exercise: Please let me know if OC(CNCCc1c[nH]c2ccc(Cl)cc12)c1ccccc1 (stereo not shown) [Compound A, reference compound] shows Emax below 30%.
Solution: rule met

Exercise: Would you kindly verify if Emax of COc1cccc2c(CC(C)NC[C@H](O)c3cccc(Cl)c3)c[nH]c12 (single isomer, unassigned) [Example 1-A-b] is strictly less than 30%?
Solution: rule not met

Exercise: Hello, is Emax of the following compound strictly smaller than 30%? COc1ccc2c(CC(C)NCC(O)c3cccc(Cl)c3)c[nH]c2c1OC (stereo not shown)
Solution: rule met

Exercise: Given COc1cccc2c(CC(C)NCC(O)c3cccc(Cl)c3)c[nH]c12 (stereo not shown) , is recorded Emax strictly lower than 30%?
Solution: rule not met

Exercise: Lab note: confirm whether the reported Emax for this compound is below 30%, equality not counting. compound: CCOc1cccc2c(CC(C)NC[C@H](O)c3cccc(Cl)c3)c[nH]c12 (stereo partly shown)
Solution: rule met

Exercise: Find out if reported Emax for COC(=O)COc1ccc2c(CC(C)NCC(O)c3cccc(Cl)c3)c[nH]c2c1 (stereo not shown) is less than 30%
Solution: rule met

Exercise: Does the reported Emax of Cc1ccc2c(CC(C)NCC(O)c3cccc(Cl)c3)c[nH]c2c1 (stereo not shown) stay below 30%?
Solution: rule not met

Exercise: # strict comparison: is reported Emax < 30%? input = COc1cccc2c(CC(C)NC[C@H](O)c3cccc(Cl)c3)c[nH]c12 (stereo partly shown) [Example 1-A]
Solution: rule not met

Exercise: Find out if reported Emax for Cc1cccc2c(CC(C)NCC(O)c3cccc(Cl)c3)c[nH]c12 (stereo not shown) is less than 30%
Solution: rule met

Exercise: Lab log: compare recorded Emax with 30%; is it strictly lower for COc1ccc2c(CC(C)NCC(O)c3cccc(Cl)c3)c[nH]c2c1 (stereo not shown) ?
Solution: rule met

Exercise: Hello, I'm reviewing records and need to know if Emax of COC(=O)COc1cccc2c(CC(C)NC[C@H](O)c3cccc(Cl)c3)c[nH]c12 (stereo partly shown) is below 30%. Could you check?
Solution: rule met
